assay: Stability in liver microsomes, rat
Provide the reported Trep Concentration 10 min of each item.
Numbers only, in µM.

For each listed entry, give its Trep Concentration 10 min.
1. CCCCCC(CCC1C(O)CC2Cc3c(cccc3OCC(=O)O)CC21)OCCC (stereo not drawn)
2. CCCCCC(CCC1C(O)CC2Cc3c(cccc3OCC(=O)O)CC21)OC(=O)c1ccc(C(F)(F)F)cc1 (stereo not drawn)
3. CCCCCC(CCC1C(O)CC2Cc3c(cccc3OCC(=O)O)CC21)OC (stereo not drawn)

Key:
[0.0425, 0.0998, 0.00607]

====

Would you kindly list Trep Concentration (μM) 60 min for each of these compounds?
assay: Stability in cryopreserved hepatocytes, human
Please provide the amount together with its unit, number first.

Sample answers from the record:
CCCCCC(CCC1C(O)CC2Cc3c(cccc3OCC(=O)O)CC21)OC(=O)C1CCCN1 (centres unmarked) [XXXVI] | 0.45 µM
CCCCCC(CCC1C(O)CC2Cc3c(cccc3OCC(=O)O)CC21)OC(=O)COc1ccc(OC(F)(F)F)cc1 (centres unmarked) [LXIV] | 0.458 µM
CCCCCC(CCC1C(O)CC2Cc3c(cccc3OCC(=O)O)CC21)OCC (centres unmarked) [XLVII] | 0.0215 µM
CCCCCC(CCC1C(O)CC2Cc3c(cccc3OCC(=O)O)CC21)OC(=O)COc1ccc(O)cc1 (centres unmarked) [LIV] | 0.475 µM
CCCCCC(CCC1C(O)CC2Cc3c(cccc3OCC(=O)O)CC21)OC(=O)C(C)C (centres unmarked) [LXVII] | 0.506 µM

Items follow; give Trep Concentration (μM) 60 min for each.
1. CCCCCC(CCC1C(O)CC2Cc3c(cccc3OCC(=O)O)CC21)OC(=O)c1ccc(C(F)(F)F)cc1 (centres unmarked) [LXII]
2. CCCCCC(CCC1C(O)CC2Cc3c(cccc3OCC(=O)O)CC21)OC(=O)c1cccc(O)c1 (centres unmarked) [LX]
3. CCCCCC(CCC1C(O)CC2Cc3c(cccc3OCC(=O)O)CC21)OCCN1CCOCC1 (centres unmarked) [L]
4. CCCCCC(CCC1C(OC(=O)CC)CC2Cc3c(cccc3OCC(=O)O)CC21)OC(=O)CC (centres unmarked) [Prodrug LXX, treprostinil dipropionate]

Key:
1: 0.194 µM; 2: 0.123 µM; 3: 0.00194 µM; 4: 0.482 µM

For every listed record, write down its Trep Concentration (μM) 60 min.
1. CCCCCC(CCC1C(O)CC2Cc3c(cccc3OCC(=O)O)CC21)OP(=O)(O)O (centres unmarked) [VI]
2. CCCCCC(CCC1C(O)CC2Cc3c(cccc3OCC(=O)O)CC21)OC(=O)N1CCC(O)CC1 (centres unmarked) [LVIII]
3. CCCCCC(CCC1C(O)CC2Cc3c(cccc3OCC(=O)O)CC21)OC(=O)c1ccc(C)cc1 (centres unmarked) [XLVIII]

Key:
1: 0.466 µM; 2: 0 µM; 3: 0.345 µM

Quick batch: Trep Concentration (μM) 60 min for everything below.
1. CCCCCC(CCC1C(O)CC2Cc3c(cccc3OCC(=O)O)CC21)OC (centres unmarked) [XLV]
2. CCCCCC(CCC1C(O)CC2Cc3c(cccc3OCC(=O)O)CC21)OC(=O)NCCO (centres unmarked) [LIX]
3. CCCCCC(CCC1C(O)CC2Cc3c(cccc3OCC(=O)O)CC21)OC(N)=O (centres unmarked) [XLII]
4. CCCCCC(CCC1C(O)CC2Cc3c(cccc3OCC(=O)O)CC21)Oc1ccccc1C(=O)O (centres unmarked) [LVI]

Key:
1. 0.0724 µM
2. 0 µM
3. 0.275 µM
4. 0 µM

For each of the compounds below, note its Trep Concentration (μM) 60 min.
1. CCCCC[C@H]1CC[C@@H]2[C@H]3Cc4cccc(OCC(=O)O)c4C[C@H]3C[C@H]2OC(=O)O1 [XXIV]
2. CCCCCC(CCC1C(O)CC2Cc3c(cccc3OCC(=O)O)CC21)OCCC (centres unmarked) [XLVI]
3. CCCCCC(CCC1C(O)CC2Cc3c(cccc3OCC(=O)O)CC21)OC(=O)C(C)(C)C (centres unmarked) [XLIX]

Key:
1: 0.312 µM; 2: 0.00568 µM; 3: 0.217 µM
